experimental-details: Solubility investigations of the dyes prepared in accordance with Examples 31 to 34
condition-parameters: dichloromethane, organic solvent or mixture, Solubility, CH2Cl2
readout-name: solubility

{"compound": "CC[N+](CC)=c1ccc2nc3c(cc(N)c4ccccc43)oc-2c1 [Nile Blue [B(CF3)4]^−]", "readout-name": "solubility", "measured-result": "> 5000 µg/mL"}
{"compound": "CN(C)c1ccc(C(=C2C=CC(=[N+](C)C)C=C2)c2ccc(N(C)C)cc2)cc1 [Crystal Violet [B(CF3)4]^−]", "readout-name": "solubility", "measured-result": "> 10000 µg/mL"}

----------
# solubility per record follows
experimental-details: Solubility investigations of the dyes prepared in accordance with Examples 31 to 34
condition-parameters: ethanol, organic solvent or mixture, Solubility

{"compound": "CC[N+](CC)=c1ccc2nc3c(cc(N)c4ccccc43)oc-2c1 [Nile Blue [B(CF3)4]^−]", "solubility": "> 3000 µg/mL"}
{"compound": "CN(C)c1ccc(C(=C2C=CC(=[N+](C)C)C=C2)c2ccc(N(C)C)cc2)cc1 [Crystal Violet [B(CF3)4]^−]", "solubility": "> 10000 µg/mL"}
